Data origin, for the record: ChEMBL document CHEMBL1158537

system: Escherichia coli; experiment: Antibacterial activity against Escherichia coli CAN-ICU 63074 after 24 hrs by macrobroth dilution method; assay type: functional; conditions: CAN-ICU 63074, 24 h
The label y is reserved for MIC strictly under 100 µg/mL; n covers values equal to or above it.

As a guide, the following entries are already answered.
Compound | Class
NC[C@H]1O[C@H](O[C@H]2[C@H](OC(=O)Nc3ccccc3)[C@@H](O[C@H]3O[C@H](COC(=O)Nc4ccccc4)[C@@H](OC(=O)Nc4ccccc4)[C@H](N)[C@H]3OC(=O)Nc3ccccc3)[C@H](N)C[C@@H]2N)[C@H](OC(=O)Nc2ccccc2)[C@@H](OC(=O)Nc2ccccc2)[C@@H]1OC(=O)Nc1ccccc1.O=C(O)C(F)(F)F | n
NC[C@@H]1O[C@@H](O[C@H]2[C@H](O)[C@@H](O[C@H]3O[C@H](CO)[C@@H](O)[C@H](N)[C@H]3O)[C@H](N)C[C@@H]2N)[C@@H](O)[C@H](O)[C@H]1O | y
CC(C)(C)c1ccc(COC[C@H]2O[C@@H](O[C@@H]3[C@@H](OCc4ccc(C(C)(C)C)cc4)[C@H](N)C[C@H](N)[C@H]3O[C@H]3O[C@H](CN)[C@@H](OCc4ccc(C(C)(C)C)cc4)[C@H](OCc4ccc(C(C)(C)C)cc4)[C@H]3N)[C@H](OCc3ccc(C(C)(C)C)cc3)[C@@H]2O[C@H]2O[C@@H](CN)[C@@H](OCc3ccc(C(C)(C)C)cc3)[C@H](OCc3ccc(C(C)(C)C)cc3)[C@H]2N)cc1.O=C(O)C(F)(F)F | n
NC[C@@H]1O[C@H](O[C@H]2[C@@H](OCc3ccccc3)[C@H](O[C@@H]3[C@@H](OCc4ccccc4)[C@H](N)C[C@H](N)[C@H]3O[C@H]3O[C@H](CN)[C@@H](OCc4ccccc4)[C@H](OCc4ccccc4)[C@H]3N)O[C@@H]2COCc2ccccc2)[C@H](N)[C@@H](OCc2ccccc2)[C@@H]1OCc1ccccc1.O=C(O)C(F)(F)F | y
NC[C@H]1O[C@H](O[C@H]2[C@H](OC(=O)Nc3ccccc3)[C@@H](OC(=O)Nc3ccccc3)[C@H](N)C[C@@H]2N)[C@H](N)[C@@H](OC(=O)Nc2ccccc2)[C@@H]1OC(=O)Nc1ccccc1.O=C(O)C(F)(F)F | y

Lab note: next compound to report on.
Query string: Find out if reported MIC for NCC[C@H](O)C(=O)N[C@@H]1C[C@H](N)[C@@H](O[C@H]2O[C@H](CN)[C@@H](O)[C@H](O)[C@H]2O)[C@H](O)[C@H]1O[C@H]1O[C@H](CO)[C@@H](O)[C@H](N)[C@H]1O is less than 100 µg/mL
Result string: y
